Just for reference, paper PMC5415745 is where these values come from.

Experiment: Bidirectional (AP→BL, BL→AP) drug transport across Caco-2 cell monolayers in transwells: cumulative transport, Papp, efflux ratio; HPLC or radiolabeled assay
Details: human, Caco-2, Efflux ratio ER, [3H] NVP alone; after 60 min; samples 1-3
Measurement type: efflux ratio at 60 min
A bare number is all that is needed in reply.

Consider Cc1ccnc2c1NC(=O)c1cccnc1N2C1CC1 [NVP, nevirapine] . Its measured efflux ratio at 60 min is 1.03

====

Experiment: in vitro
Details: human, Caco-2, PappBA, Mean
Measurement type: Papp B→A at 7200 sec (×10⁻⁶ cm/s)
Give your result in ×10⁻⁶ cm/s as a bare value.

Entry O=C(C1CCCCC1)N1CC(=O)N2CCc3ccccc3C2C1 (stereo not shown) ; Papp B→A at 7200 sec = 57.2
